compounds and their reported log10 of Ki
Protein target, amino acids: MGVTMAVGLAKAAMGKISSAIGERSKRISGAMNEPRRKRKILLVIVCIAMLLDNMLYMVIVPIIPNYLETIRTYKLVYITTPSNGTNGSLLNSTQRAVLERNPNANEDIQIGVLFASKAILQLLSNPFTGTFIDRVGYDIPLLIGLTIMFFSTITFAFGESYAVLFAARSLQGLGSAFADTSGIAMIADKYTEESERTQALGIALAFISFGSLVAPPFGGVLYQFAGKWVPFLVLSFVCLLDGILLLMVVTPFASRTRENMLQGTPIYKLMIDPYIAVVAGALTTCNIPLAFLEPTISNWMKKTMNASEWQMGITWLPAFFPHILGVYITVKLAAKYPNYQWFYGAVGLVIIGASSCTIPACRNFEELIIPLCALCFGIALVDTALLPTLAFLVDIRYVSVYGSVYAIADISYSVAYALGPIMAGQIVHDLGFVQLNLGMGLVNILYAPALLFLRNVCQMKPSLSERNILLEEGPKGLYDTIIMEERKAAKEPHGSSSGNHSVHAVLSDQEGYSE
Could you please treat all values as log10 of Ki in nM?

Past entries and their recorded results:
| Compound | log10 of Ki |
| --- | --- |
| Nc1cccc2c1C[C@@H](O)[C@H](N1CCC(C(=O)c3ccc(Br)s3)CC1)C2 | 1.47 |
| O=C(c1ccc(F)cc1)C1CCN([C@@H]2CCCC[C@H]2O)CC1 | 2.63 |
| O=C(C1CCN([C@@H]2Cc3ccccc3C[C@H]2O)CC1)N1CCN(Cc2ccccc2)CC1 (relative stereo) | 0.32 |
| O=C(c1ccc(I)s1)C1CCN([C@@H]2CCCC[C@H]2O)CC1 | 2.75 |

Here's the next entry for you.
The compound listed as O=C(c1ccc(Br)s1)C1CCN([C@@H]2CCCC[C@H]2O)CC1 shows log10 of Ki equal to 1.67

###

pKi, Vesicular acetylcholine transporter (Torpedo californica): measured values
// field semantics: pKi = negative decimal log of concentration (mol/L)

The cases that follow already have their pKi on record.
| Compound | Study System | Reported Value |
| --- | --- | --- |
| Nc1cccc2c1C[C@@H](N1CCC(C(=O)c3ccc(Br)s3)CC1)[C@H](O)C2 | Vesicular acetylcholine transporter (Torpedo californica) | 9.39 |
| O=C(c1cccs1)C1CCN([C@@H]2CCCC[C@H]2O)CC1 | Vesicular acetylcholine transporter (Torpedo californica) | 6.12 |
| O=C(c1ccccc1)C1CCN([C@@H]2CCCC[C@H]2O)CC1 | Vesicular acetylcholine transporter (Torpedo californica) | 6.19 |

compound O=C(c1ccc(I)s1)C1CCN([C@@H]2Cc3ccccc3C[C@H]2O)CC1 (relative stereo) , pKi observed: 9.18

# compound O=C(c1ccccc1)C1(c2ccccc2)CCN([C@@H]2CCCC[C@H]2O)CC1 ; its pKi = 7.16

Value of measured pKi for the entry O=C(c1ccc(F)cc1)C1(c2ccccc2)CCN([C@@H]2Cc3ccccc3C[C@H]2O)CC1 : 8.74

// pKi lookup, compound = O=C(C1CCN([C@@H]2Cc3ccccc3C[C@H]2O)CC1)N1CCC(Cc2ccccc2)CC1 (relative stereo) , result: 8.62

The compound listed as Nc1cccc2c1C[C@@H](O)[C@H](N1CCC(C(=O)c3ccc(F)cc3)CC1)C2 shows pKi equal to 8.12

Quick note, pKi for Nc1cccc2c1C[C@@H](N1CCC(C(=O)c3cccs3)CC1)[C@H](O)C2 landed at 8.31

###

# Measurement Notes: Selectivity ratio of Ki for sigma 1 receptor in guinea pig brain membrane homogenates to Ki for VAChT in Torpedo californica cholinergic synaptic vesicles
# Format: cell membranes
Attribute Measured: Ratio Ki
Form rule: numeric answer, no unit written next to it.

Guide cases for Ratio Ki, answers given:
| Compound | Reported Value |
| --- | --- |
| O=C(C1CCN([C@@H]2Cc3ccccc3C[C@H]2O)CC1)N1CCC(c2ccccc2)CC1 (relative stereo) | 24.3 |
| O=C(C1CCN([C@@H]2Cc3ccccc3C[C@H]2O)CC1)N1CCC(Cc2ccccc2)CC1 (relative stereo) | 8.3 |
| O=C(C1CCN([C@@H]2Cc3ccccc3C[C@H]2O)CC1)N1CCN(Cc2ccccc2)CC1 (relative stereo) | 56.8 |
| O=C(c1ccc(Br)s1)C1CCN([C@@H]2Cc3ccccc3C[C@H]2O)CC1 (relative stereo) | 239 |
| O=C(c1ccc(I)s1)C1CCN([C@@H]2CCCC[C@H]2O)CC1 | 0.02 |

# compound O=C(c1ccc(Br)cc1)C1CCN([C@@H]2CCCC[C@H]2O)CC1 ; its Ratio Ki = 0.3

Just so you know, measured Ratio Ki for Nc1cccc2c1C[C@@H](O)[C@H](N1CCC(C(=O)c3ccc(F)cc3)CC1)C2 came out at 65.4

The recorded Ratio Ki for O=C(c1ccccc1)C1CCN([C@@H]2CCCC[C@H]2O)CC1 is 0.4

For O=C(c1ccc(F)cc1)C1CCN([C@@H]2CCCC[C@H]2O)CC1 the compound record lists Ratio Ki as 0.7

###

# Measurement Notes: Displacement of [3H]DTG from sigma 2 receptor in rat liver membrane homogenates after 2 hrs by liquid scintillation counting
# Assay type: cell membranes
Each entry below lists one item and its recorded Ki value.
Write the number in nM without appending the unit.

Examples with their reported Ki follow.
| Compound | Ki (nM) |
| --- | --- |
| O=C(c1ccc(F)cc1)C1CCN([C@@H]2CCCC[C@H]2O)CC1 | 113 |
| O=C(c1ccccc1)C1CCN([C@@H]2CCCC[C@H]2O)CC1 | 341 |
| Nc1cccc2c1C[C@@H](O)[C@H](N1CCC(C(=O)c3ccc(F)cc3)CC1)C2 | 353 |
| O=C(c1ccc(Br)cc1)C1CCN([C@@H]2CCCC[C@H]2O)CC1 | 30.1 |
| O[C@@H]1CCCC[C@H]1N1CCC(c2ccccc2)CC1 [VESAMICOL] | 34.5 |
| O=C(c1ccc(Br)s1)C1CCN([C@@H]2CCCC[C@H]2O)CC1 | 35.7 |

Entry O=C(c1ccc(I)s1)C1CCN([C@@H]2CCCC[C@H]2O)CC1 ; Ki = 48.9

For Nc1cccc2c1C[C@@H](O)[C@H](N1CCC(C(=O)c3ccc(Br)s3)CC1)C2 the compound record lists Ki as 121

O=C(c1ccc(I)s1)C1CCN([C@@H]2Cc3ccccc3C[C@H]2O)CC1 (relative stereo) yielded Ki of 344

Sample O=C(c1ccc(Br)s1)C1CCN([C@@H]2Cc3ccccc3C[C@H]2O)CC1 (relative stereo) ; Ki observed: 72

###

This listing pairs molecules with measured Ratio Ki.
# Measurement Notes: Selectivity ratio of Ki for sigma 1 receptor in guinea pig brain membrane homogenates to Ki for VAChT in Torpedo californica cholinergic synaptic vesicles
# Format: cell membranes
Kindly provide the number alone.

| Molecule | Ratio Ki |
| --- | --- |
| Nc1cccc2c1C[C@@H](N1CCC(C(=O)c3ccc(Br)cc3)CC1)[C@H](O)C2 | 746 |
| O=C(c1ccc(I)s1)C1CCN([C@@H]2Cc3ccccc3C[C@H]2O)CC1 (relative stereo) | 294 |
| Nc1cccc2c1C[C@@H](O)[C@H](N1CCC(C(=O)c3ccc(Br)s3)CC1)C2 | 16.4 |

// sample O=C(c1ccc(Br)s1)C1CCN([C@@H]2CCCC[C@H]2O)CC1 , its Ratio Ki was 0.6

###

The entries below are paired with their reported Ratio Ki.
# Measurement Notes: Selectivity ratio of for sigma 2 receptor in rat liver membrane homogenates to Ki for VAChT in Torpedo californica cholinergic synaptic vesicles
# Type: cell membranes
Returns: the value as a bare number; no unit string appended.

| Compound | Ratio Ki |
| --- | --- |
| Nc1cccc2c1C[C@@H](O)[C@H](N1CCC(C(=O)c3ccc(Br)s3)CC1)C2 | 4.1 |
| O=C(c1ccc(Br)s1)C1CCN([C@@H]2Cc3ccccc3C[C@H]2O)CC1 (relative stereo) | 133 |
| O=C(c1ccc(I)s1)C1CCN([C@@H]2Cc3ccccc3C[C@H]2O)CC1 (relative stereo) | 522 |
| O=C(c1ccc(I)s1)C1CCN([C@@H]2CCCC[C@H]2O)CC1 | 0.1 |
| O=C(c1ccccc1)C1CCN([C@@H]2CCCC[C@H]2O)CC1 | 0.5 |

compound Nc1cccc2c1C[C@@H](O)[C@H](N1CCC(C(=O)c3ccc(F)cc3)CC1)C2 , Ratio Ki observed: 46.4

Ratio Ki reported for this compound O=C(c1ccc(F)cc1)C1CCN([C@@H]2CCCC[C@H]2O)CC1 : 0.3

Query O=C(c1ccc(Br)cc1)C1CCN([C@@H]2CCCC[C@H]2O)CC1 yields Ratio Ki of 0.6

Entry O=C(c1ccc(Br)s1)C1CCN([C@@H]2CCCC[C@H]2O)CC1 , Ratio Ki reported as 0.8

###

# Study System: Vesicular acetylcholine transporter (Torpedo californica)
# Sequence (P81721 whole entry): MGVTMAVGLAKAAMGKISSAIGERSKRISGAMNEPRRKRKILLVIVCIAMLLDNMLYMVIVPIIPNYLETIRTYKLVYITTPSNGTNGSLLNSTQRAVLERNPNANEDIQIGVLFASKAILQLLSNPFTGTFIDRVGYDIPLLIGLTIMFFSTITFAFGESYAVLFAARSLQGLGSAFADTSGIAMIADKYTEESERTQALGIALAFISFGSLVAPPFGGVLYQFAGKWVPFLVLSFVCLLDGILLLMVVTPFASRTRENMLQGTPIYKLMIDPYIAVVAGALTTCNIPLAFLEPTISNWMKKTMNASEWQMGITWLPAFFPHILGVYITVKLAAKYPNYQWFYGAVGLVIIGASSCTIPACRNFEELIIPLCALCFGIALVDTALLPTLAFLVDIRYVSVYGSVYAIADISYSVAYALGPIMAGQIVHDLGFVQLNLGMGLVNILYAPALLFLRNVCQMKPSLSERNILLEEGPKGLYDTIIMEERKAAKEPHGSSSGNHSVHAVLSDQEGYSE
Listing: Ki of selected compounds
Numbers only here, please. The scale is nM.

| Compound | Ki (nM) |
| --- | --- |
| O=C(c1ccccc1)C1(c2ccccc2)CCN([C@@H]2Cc3ccccc3C[C@H]2O)CC1 (relative stereo) | 1.64 |
| O=C(C1CCN([C@@H]2Cc3ccccc3C[C@H]2O)CC1)N1CCCCC1 (relative stereo) | 31 |
| O=C(c1cccs1)C1CCN([C@@H]2Cc3ccccc3C[C@H]2O)CC1 (relative stereo) | 5 |

response.value for CCOC(=O)C1CCN([C@@H]2Cc3ccccc3C[C@H]2O)CC1 (relative stereo) (field: Ki) = 68.5

Summary for this compound, Nc1cccc2c1C[C@@H](N1CCC(C(=O)N3CCCCC3)CC1)[C@H](O)C2 : Ki is 89.5

// field: Ki; key: O=C(c1ccc(Br)s1)C1CCN([C@@H]2Cc3ccccc3C[C@H]2O)CC1 (relative stereo) ; value = 0.54

Nc1cccc2c1C[C@@H](N1CCC(C(=O)c3ccc(Br)cc3)CC1)[C@H](O)C2 has a reported Ki of 0.53

Record Nc1cccc2c1C[C@@H](N1CCC(C(=O)c3ccc(F)cc3)CC1)[C@H](O)C2 . Reported Ki: 2.4

In plain terms, Nc1cccc2c1C[C@@H](O)[C@H](N1CCC(C(=O)c3cccs3)CC1)C2 has a documented Ki of 134

Query O=C(c1ccc(Br)cc1)C1CCN([C@@H]2CCCC[C@H]2O)CC1 yields Ki of 51.4

For record O=C(C1CCN([C@@H]2Cc3ccccc3C[C@H]2O)CC1)N1CCC(c2ccccc2)CC1 (relative stereo) the listed Ki is 2.07

Sure, the documented Ki for O=C(Cc1ccccc1)C1(c2ccccc2)CCN([C@@H]2Cc3ccccc3C[C@H]2O)CC1 (relative stereo) is 1.38
